This listing pairs binders with measured iScore.
target: T1, MHC class I molecule A*0201 (biotin (bound to streptavidin-coated plate)); assay: iTopia iScore
T1 construct: also called A2; HLA-A2

Use the examples below as a reference point.
ASAVSAQPP [5T4 9-mer peptide 25 ASAVSAQPP]    0
HNPLADLSP [5T4 9-mer peptide 76 HNPLADLSP]    0
SSFSSSAPF [5T4 9-mer peptide 20 SSFSSSAPF]    0.037

As a next step, examine the binder that follows.
Report iScore for AGRALQGLR [5T4 9-mer peptide 103 AGRALQGLR] please.
0

// provenance: patent US20090280138A1
